System: vesicular stomatitis virus particles (VSV) pseudotyped with EboV Zaire GP
TEST_NAME: microbe, parasite or virus in culture
Assay type: cell-based
PARTICULARS: Vesicular stomatitis virus
pIC50: −log10 of the molar value.
Parameter: pIC50. Scope: all listed entries.
MEASURED_ENDPOINT: pIC50

{"COMPOUND": "CS(=O)(=O)c1ccc(COc2ccc(F)cc2CN2CCN(C(=O)CNC(=O)CC3CCC(F)(F)CC3)CC2)cc1", "MEASURED_ENDPOINT": "pIC50", "QUALIFYING_SIGN": "=", "MEASURED_RESULT": 7.40}
{"COMPOUND": "Cc1ccc(Cl)cc1CN1CCN(C(=O)CNC(=O)C2CC23CCC(F)(F)CC3)CC1 (stereo not shown)", "MEASURED_ENDPOINT": "pIC50", "QUALIFYING_SIGN": "=", "MEASURED_RESULT": 6.26}
{"COMPOUND": "O=C(CC1CCC(F)(F)CC1)NCC(=O)N1CCN(Cc2cc(F)ccc2OCc2ccc3nonc3c2)CC1", "MEASURED_ENDPOINT": "pIC50", "QUALIFYING_SIGN": "=", "MEASURED_RESULT": 6.72}
{"COMPOUND": "COC(=O)c1ccc(COc2ccc(Cl)cc2CN2CCN(C(=O)CNC(=O)CC34CC5CC(CC(C5)C3)C4)CC2)cc1", "MEASURED_ENDPOINT": "pIC50", "QUALIFYING_SIGN": "=", "MEASURED_RESULT": 9.00}
{"COMPOUND": "Nc1ccc(-c2ccc(F)cc2)cc1CN1CCN(C(=O)CNC(=O)CC2CCC(F)(F)CC2)CC1", "MEASURED_ENDPOINT": "pIC50", "QUALIFYING_SIGN": "<", "MEASURED_RESULT": 5.70}
{"COMPOUND": "O=C(CC12CC3CC(CC(C3)C1)C2)NCC(=O)N1CCN(Cc2cc(Cl)ccc2F)CC1", "MEASURED_ENDPOINT": "pIC50", "QUALIFYING_SIGN": "=", "MEASURED_RESULT": 6.44}
{"COMPOUND": "CCC1(CC)CC1C(=O)NCC(=O)N1CCN(Cc2cc(Cl)ccc2O)CC1 (stereo not shown)", "MEASURED_ENDPOINT": "pIC50", "QUALIFYING_SIGN": "=", "MEASURED_RESULT": 6.66}

###

Test system: vesicular stomatitis virus particles (VSV) pseudotyped with EboV Zaire GP
TEST_NAME: microbe, parasite or virus in culture
Type: cell-based
PARTICULARS: Vesicular stomatitis virus
pIC50: −log10 of the molar value.
Parameter: pIC50. Scope: all listed entries.
MEASURED_ENDPOINT: pIC50

{"STRUCTURE_STRING": "O=C(CC1CCC(F)(F)CC1)NCC(=O)N1CCN(Cc2cccc3ncccc23)CC1", "QUALIFYING_SIGN": "<", "MEASURED_RESULT": 5.30}
{"STRUCTURE_STRING": "COC(=O)c1ccc(COc2ccc(Cl)cc2CN2CCN(C(=O)CNC(=O)CC3CCC(F)(F)CC3)CC2)cc1", "QUALIFYING_SIGN": "=", "MEASURED_RESULT": 7.82}
{"STRUCTURE_STRING": "O=C(CC1CCC(F)(F)CC1)NCC(=O)N1CCN(Cc2ccc(F)c(Cl)c2F)CC1", "QUALIFYING_SIGN": "=", "MEASURED_RESULT": 5.40}
{"STRUCTURE_STRING": "O=C(CC12CC3CC(CC(C3)C1)C2)NCC(=O)N1CCN(Cc2cc(Cl)ccc2OC(F)(F)F)CC1", "QUALIFYING_SIGN": "=", "MEASURED_RESULT": 6.38}
{"STRUCTURE_STRING": "NC(=O)c1ccc(Cl)cc1CN1CCN(C(=O)CNC(=O)CC23CC4CC(CC(C4)C2)C3)CC1", "QUALIFYING_SIGN": "=", "MEASURED_RESULT": 5.72}
{"STRUCTURE_STRING": "O=C(CC1CCC(F)(F)CC1)NCC(=O)N1CCN(Cc2cc(Cl)c(F)cc2F)CC1", "QUALIFYING_SIGN": "<", "MEASURED_RESULT": 5.70}
{"STRUCTURE_STRING": "CC(=O)N1CCC(COc2ccc(Cl)cc2CN2CCN(C(=O)CNC(=O)CC34CC5CC(CC(C5)C3)C4)CC2)CC1", "QUALIFYING_SIGN": "=", "MEASURED_RESULT": 6.40}

###

TEST_NAME: in vivo
PARTICULARS: mouse, po

{"MOLECULE": "CS(=O)(=O)c1ccc(COc2ccc(Cl)cc2CN2CCN(C(=O)CNC(=O)C3CC34CCC(F)(F)CC4)CC2)cc1 (stereo not shown)", "AUC": "314 µM·h"}

###

Test system: vesicular stomatitis virus particles (VSV) pseudotyped with EboV Zaire GP
TEST_NAME: microbe, parasite or virus in culture
Type: cell-based
PARTICULARS: Vesicular stomatitis virus
pIC50: −log10 of the molar value.
Parameter: pIC50. Scope: all listed entries.

{"MOLECULE": "COC(=O)c1ccc(COc2ccccc2CN2CCN(C(=O)CNC(=O)OC3CCC(F)(F)CC3)CC2)cc1 [Compound 1319]", "ASSAYED_TARGET": "vesicular stomatitis virus particles (VSV) pseudotyped with EboV Zaire GP", "QUALIFYING_SIGN": "=", "pIC50": 6.51}
{"MOLECULE": "Nc1ccc(Cl)cc1CN1CCN(C(=O)CNC(=O)CC2CCC(F)(F)CC2)CC1 [Compound 1343]", "ASSAYED_TARGET": "vesicular stomatitis virus particles (VSV) pseudotyped with EboV Zaire GP", "QUALIFYING_SIGN": "=", "pIC50": 6.49}
{"MOLECULE": "O=C(Nc1ccccc1)Nc1ncc(Cl)cc1CN1CCN(C(=O)CNC(=O)C2CC23CCC(F)(F)CC3)CC1 (stereo not shown) [Compound 1392]", "ASSAYED_TARGET": "vesicular stomatitis virus particles (VSV) pseudotyped with EboV Zaire GP", "QUALIFYING_SIGN": "=", "pIC50": 6.00}
{"MOLECULE": "COC(=O)c1ccc(COc2ccc([N+](=O)[O-])cc2CN2CCN(C(=O)CNC(=O)CC34CC5CC(CC(C5)C3)C4)CC2)cc1 [Compound 1113]", "ASSAYED_TARGET": "vesicular stomatitis virus particles (VSV) pseudotyped with EboV Zaire GP", "QUALIFYING_SIGN": ">", "pIC50": 5.70}
{"MOLECULE": "O=C(CC12CC3CC(CC(C3)C1)C2)NCC(=O)N1CCN(Cc2cc(Br)ccc2Cl)CC1 [Compound 1338]", "ASSAYED_TARGET": "vesicular stomatitis virus particles (VSV) pseudotyped with EboV Zaire GP", "QUALIFYING_SIGN": "=", "pIC50": 7.09}
{"MOLECULE": "O=C(CNC(=O)C12CC3CC(C1)CC(c1ccc(O)c([N+](=O)[O-])c1)(C3)C2)N1CCN(Cc2ccccc2OCc2ccc(Br)cc2)CC1 [Compound 1805]", "ASSAYED_TARGET": "vesicular stomatitis virus particles (VSV) pseudotyped with EboV Zaire GP", "QUALIFYING_SIGN": "=", "pIC50": 6.22}
{"MOLECULE": "CCC1(CC)CC1C(=O)NCC(=O)N1CCN(Cc2cc(Cl)ccc2N)CC1 (stereo not shown) [Compound 1411]", "ASSAYED_TARGET": "vesicular stomatitis virus particles (VSV) pseudotyped with EboV Zaire GP", "QUALIFYING_SIGN": "=", "pIC50": 6.85}

###

TEST_NAME: in vivo
PARTICULARS: mouse, po, 25 mg/kg
MEASURED_ENDPOINT: Cmax (µM)

{"MOLECULE": "[2H]C([2H])(c1cc(Cl)ccc1N)N1CCN(C(=O)CNC(=O)CC2CCC(F)(F)CC2)CC1 [Compound 1412]", "MEASURED_ENDPOINT": "Cmax", "MEASUREMENT_UNIT": "µM", "MEASURED_RESULT": 12}

###

PARTICULARS: mouse, in vivo, po, 50 mg/kg
MEASURED_ENDPOINT: Cmax

{"MOLECULE": "CS(=O)(=O)c1ccc(COc2ccc(Cl)cc2CN2CCN(C(=O)CNC(=O)C3CC34CCC(F)(F)CC4)CC2)cc1 (single isomer, unassigned; (-)) [(−)-1476]", "MEASURED_RESULT": "10.4 µM"}
{"MOLECULE": "CS(=O)(=O)c1ccc(CNc2ccc(Cl)cc2CN2CCN(C(=O)CNC(=O)C3CC34CCC(F)(F)CC4)CC2)cc1 (single isomer, unassigned; (-)) [(−)-1503]", "MEASURED_RESULT": "7.4 µM"}
{"MOLECULE": "Nc1ccc(Cl)cc1CN1CCN(C(=O)CNC(=O)C2CC23CCC(F)(F)CC3)CC1 (single isomer, unassigned; (-)) [(−)-1413]", "MEASURED_RESULT": "19.5 µM"}
